# tgt: Mouse soluble TWEAK (mouse) (UniProt O54907)
# test method notes: competition ELISA: antibody pre-incubated with mouse soluble TWEAK, binding to coated mouse Fn14:Fc
assay readout: IC50 (ng/mL)

{"binder": "Antibody 27 (antibody, V domains shown, also called humanized 305 variant 305-LC2 / 305-HC4) VH: QVQLVQSGAEVKKPGSSVKVSCKASGFDFSTYYMSWVRQAPGQGLEWMGTVYVRQGTTYYASWLNGRVTITADESTSTAYMELSSLRSEDTAVYYCARGGYNYDDAFVIWGQGTLVTVSS VL: DIQMTQSPSSVSASVGDRVTITCQASQNIYSNLAWYQQKPGKAPKLLIYTASYLASGVPSRFSGSGSGTDYTLTISSLQPEDFATYYCQTAYYNSRPDTVAFGGGTKVEIK", "result number": 8.2}
{"binder": "Antibody 28 (antibody, V domains shown, Humanized variant of antibody 305; also called humanized 305 variant 305-LC2 / 305-HC7) VH: EVQLLESGGGLVQPGGSLTLSCAASGFDFSTYYMSWVRQAPGKGLEWVSTVYVRQGTTYYASWLNGRFTISRDNSKNTLYLQMNSLRAEDTAVYYCAKGGYNYDDAFVIWGQGTLVTVSS VL: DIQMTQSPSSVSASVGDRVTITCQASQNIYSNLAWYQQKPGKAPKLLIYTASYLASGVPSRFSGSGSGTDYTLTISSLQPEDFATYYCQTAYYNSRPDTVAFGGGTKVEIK", "result number": 6.5}
{"binder": "Antibody 29 (antibody, V domains shown, Humanized variant of antibody 305; also called humanized 305 variant 305-LC2 / 305-HC8) VH: EVQLLESGGGLVQPGGSLRLSCAASGFDFSTYYMSWVRQAPGKGLEWVSTVYVRQGTTYYASWLNGRFTISRDNSKNTLDLQMNSLRAEDTAVYYCAKGGYNYDDAFVIWGQGTLVTVSS VL: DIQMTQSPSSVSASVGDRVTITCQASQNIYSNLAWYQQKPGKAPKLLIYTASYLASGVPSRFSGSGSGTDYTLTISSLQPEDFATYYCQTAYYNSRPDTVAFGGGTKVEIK", "result number": 5.7}
{"binder": "Antibody 32 (antibody, V domains shown, Humanized variant of antibody 305; also called humanized 305 variant 305-LC6 / 305-HC8) VH: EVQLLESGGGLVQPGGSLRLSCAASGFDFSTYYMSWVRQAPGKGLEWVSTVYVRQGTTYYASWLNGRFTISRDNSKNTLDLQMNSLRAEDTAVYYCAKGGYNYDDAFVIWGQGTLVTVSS VL: DIQMTQSPSTLSASVGDRVTITCQASQNIYSNLAWYQQKPGKAPKLLIYTASYLASGVPSRFSGSGSGTEFTLTISSLQPDDFATYYCQTAYYNSRPDTVAFGGGTKVEIK", "result number": 5.4}
{"binder": "Antibody 33 (antibody, V domains shown, Humanized variant of antibody 305; also called humanized 305 variant 305-LC4 / 305-HC4) VH: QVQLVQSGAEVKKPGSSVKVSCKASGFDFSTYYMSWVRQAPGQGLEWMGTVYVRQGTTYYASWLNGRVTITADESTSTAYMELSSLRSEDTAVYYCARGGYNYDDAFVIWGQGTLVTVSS VL: AIRMTQSPSSFSASTGDRVTITCQASQNIYSNLAWYQQKPGKAPKLLIYTASYLASGVPSRFSGSGSGTDYTLTISCLQSEDFATYYCQTAYYNSRPDTVAFGGGTKVEIK", "result number": 6.7}

meta.source: patent US20120121583A1
